# MIC annotations
- Tested on: A. baumannii (ARC3495)

Compound | MIC
CN/C(=N\OC(=O)NC(C)(C)C(=O)O)[C@@H]1c2c(cnn2C)[C@@H]2CN1C(=O)N2OS(=O)(=O)O (racemic) | > 16 µg/mL
CN/C(=N\OC(=O)N[C@H]1CC[C@H](N)CC1)[C@@H]1c2c(cnn2C)[C@@H]2CN1C(=O)N2OS(=O)(=O)O (racemic) | 8 to 16 µg/mL
CN/C(=N\OC(=O)NOC)[C@@H]1c2c(cnn2C)[C@@H]2CN1C(=O)N2OS(=O)(=O)O (racemic) | 8 to 16 µg/mL

Prompt: Name the reported MIC value associated with the compound CN/C(=N\OC(=O)N[C@H]1CCNC1)[C@@H]1c2c(cnn2C)[C@@H]2CN1C(=O)N2OS(=O)(=O)O (racemic)
Completion: 8 to 16 µg/mL

Prompt: Return reported MIC; argument: `CN/C(=N\OC(=O)NCCNC(C)=O)[C@@H]1c2c(cnn2C)[C@@H]2CN1C(=O)N2OS(=O)(=O)O`
Completion: > 16 µg/mL

Prompt: Param item = `CN/C(=N\OCC(N)=O)[C@@H]1c2c(cnn2C)[C@@H]2CN1C(=O)N2OS(=O)(=O)O` ; retrieve measured MIC.
Completion: 8 to 16 µg/mL

Prompt: Item CN/C(=N\OC(=O)NCCC(N)=O)[C@@H]1c2c(cnn2C)[C@@H]2CN1C(=O)N2OS(=O)(=O)O (racemic) has what recorded MIC?
Completion: > 16 µg/mL
